Each entry below carries its reported TGI.
- Tested on: OVCAR-4 ovarian
- assay remarks: NCI tumour cell line growth inhibition, 48 h

Sample records with TGI:
The molecule identified as CCN1C(=O)N(c2ccccc2)C2NC(=S)N(/N=C/C=C/c3ccccc3)C21 (stereo unspecified) registered its TGI at > 100 µM

The molecule identified as "C[n+]1ccc(Nc2ccc(NC(=O)c3ccc(Nc4cc[n+](C)c5ccc([N+](=O)[O-])cc45)cc3[N+](=O)[O-])cc2)cc1" registered its TGI at > 100 µM

The molecule identified as C/C=C(\C)C(=O)OC1C(C)=C2C(C1OC(=O)CCCC)C(C)(OC(C)=O)CC(OC(=O)CCCC)C1(O)C2OC(=O)C1(C)O (stereo unspecified) registered its TGI at > 100 µM

The molecule identified as "CSc1sc(=S)sc1C(=O)N(C)c1ccccc1" registered its TGI at > 100 µM

The molecule identified as CC(NCCC(=O)N(CCC(=O)N(CCC(=O)N(CCC(=O)N(CCC(=O)N(CCC(=O)N(CCC(=O)N(CCC(=O)N(CCC(=O)N(CCC(=O)O)[C@H](C)c1ccccc1)[C@H](C)c1ccccc1)[C@H](C)c1ccccc1)[C@H](C)c1ccccc1)[C@H](C)c1ccccc1)[C@H](C)c1ccccc1)[C@H](C)c1ccccc1)[C@H](C)c1ccccc1)[C@H](C)c1ccccc1)c1ccccc1 (stereo partly specified) registered its TGI at > 68.7 µM

As a next step, examine the molecule that follows.
The molecule identified as "C/C(=N\NC(=S)N1CCN(C)CC1)c1nc2ncccc2[nH]1" registered its TGI at > 100 µM

----------
- System: SNB-19 CNS
- assay remarks: NCI tumour cell line growth inhibition, 48 h
quantity name: GI50

Sample records with GI50:
The molecule identified as "FC(F)(F)c1ccc(C#Cc2ccccc2C#Cc2ccccc2)cc1" registered its GI50 at 69.3 µM

The molecule identified as "CNCCNc1c2c(c(NCCNC)c3[nH]ccc13)C(=O)c1ccccc1C2=O" registered its GI50 at 4.58 µM

The molecule identified as COC(=O)C1CCCN1C(=O)[C@@H]1CCCN1C(=O)[C@H](Cc1c[nH]c2ccccc12)NC(=S)Nc1cc(C(F)(F)F)cc(C(F)(F)F)c1 (some centres not stated) registered its GI50 at 2.7 µM

The molecule identified as Nc1nc(N)c2c(n1)NC(c1ccc(F)cc1)C1CCc3ccccc3C1=N2 (configuration not stated) registered its GI50 at 12 µM

More entries:
The molecule identified as "COc1cc(/C=C/C(=O)c2c(C)nc3ccccc3c2/C=C/c2ccc(C)cc2)cc(OC)c1OC" registered its GI50 at 1.69 µM

The molecule identified as "O=C(Nc1ccc2[nH]c(=S)sc2c1)Nc1ccccc1F" registered its GI50 at 41.8 µM

The molecule identified as OC(CNCC1CCCO1)Cn1c2ccc(Cl)cc2c2cc(Cl)ccc21 (configuration not stated) registered its GI50 at 1.88 µM

The molecule identified as Cc1ccc2c(c1)C(C)Cc1c(Cl)ncnc1N2C (configuration not stated) registered its GI50 at 4.89 µM

The molecule identified as O=c1[nH]c(=O)c2cc(C3CC(O)C(CO)O3)ccc2[nH]1 (configuration not stated) registered its GI50 at > 100 µM

The molecule identified as "COc1ccccc1N1CCN(CCc2c[nH]c3cc4c(cc23)OCO4)CC1" registered its GI50 at 26 µM

The molecule identified as CCN1C(=O)N(c2ccccc2)C2NC(=S)N(/N=C/C=C/c3ccccc3)C21 (configuration not stated) registered its GI50 at 0.472 µM

The molecule identified as "Oc1ccccc1CNCC12CC3CC(CC(C3)C1)C2" registered its GI50 at 60.3 µM

----------
- System: OVCAR-5 ovarian
- assay remarks: NCI tumour cell line growth inhibition, 48 h
Each entry below carries its reported GI50.

Sample records with GI50:
Value sought: GI50, system OVCAR-5 ovarian, item "COc1cccc2c1C(=O)c1c(O)c3c(c(O)c1C2=O)C[C@@](O)(C(=O)CO)C[C@@H]3O[C@H]1C[C@H](N)[C@@H](O)[C@H](C)O1" . Result: 1.27 µM

Value sought: GI50, system OVCAR-5 ovarian, item CC(NCCC(=O)N(CCC(=O)N(CCC(=O)N(CCC(=O)N(CCC(=O)N(CCC(=O)N(CCC(=O)N(CCC(=O)N(CCC(=O)N(CCC(=O)O)[C@H](C)c1ccccc1)[C@H](C)c1ccccc1)[C@H](C)c1ccccc1)[C@H](C)c1ccccc1)[C@H](C)c1ccccc1)[C@H](C)c1ccccc1)[C@H](C)c1ccccc1)[C@H](C)c1ccccc1)[C@H](C)c1ccccc1)c1ccccc1 (stereo partly drawn) . Result: > 18.8 µM

As a next step, examine the molecule that follows.
Value sought: GI50, system OVCAR-5 ovarian, item "Cc1cc2[nH]c(=O)c3c4ccccc4cn3c2cc1C" . Result: 13.8 µM

----------
- Test system: HCT-116 colon
- assay remarks: NCI tumour cell line growth inhibition, 48 h
quantity name: TGI

Sample records with TGI:
The compound identified as "Oc1ccc(Cc2nccc3cc(O)c(O)cc23)cc1O" registered its TGI at 35.1 µM

The compound identified as CC1OC(OC2C(OC(=O)[C@@H]3CC(C)(C)C[C@@H]4C5=CC[C@@H]6[C@@]7(C)C[C@H](O)[C@H](OC8OC(CO)C(O)C(O)C8O)[C@@](C)(CO)C7[C@H](O)C[C@@]6(C)[C@]5(C)C[C@@H](O)[C@H]43)OCC(O)C2O)C(O)C(O)C1O (some centres undefined) registered its TGI at > 15 µM

The compound identified as "CN(N)/N=N/c1nc[nH]c1[N+](=O)[O-]" registered its TGI at > 100 µM

The compound identified as "Cc1cc2sc(C)[n+](CCCOS(=O)(=O)[O-])c2cc1C" registered its TGI at > 100 µM

The compound identified as "NC(N)=N/N=C/c1c(-c2cc([N+](=O)[O-])c(Cl)cc2Cl)nc2sccn12" registered its TGI at 1.02 µM

The compound identified as "N#Cc1cc(-c2nc3c(F)cccc3s2)ccc1N" registered its TGI at > 100 µM

The compound identified as Cc1ccc(/C=C2\CN(C)CC3C2=NN(c2ccccc2)C3c2ccc(C)cc2)cc1 (centres undefined) registered its TGI at > 100 µM

The compound identified as "COc1ccc(/C(=N\O)c2cc(C)c(OC)c(C)c2)cc1O" registered its TGI at > 100 µM

More entries:
The compound identified as "CC(=O)N(C(C)=O)n1c(-c2ccccc2)n[nH]c1=O" registered its TGI at > 100 µM

----------
- Tested on: RXF 393 renal
- assay remarks: NCI tumour cell line growth inhibition, 48 h
Each entry below carries its reported TGI.

Sample records with TGI:
Value sought: TGI, system RXF 393 renal, item "COc1cccc2c1/c(=C/c1ccc(N(C)C)cc1)c1cc(-c3ccccc3)[n+](C)n12" . Result: 1.94 µM

Value sought: TGI, system RXF 393 renal, item "Cc1c(F)c(N)c2c(=O)cc(-c3ccc(N)c(F)c3)oc2c1F" . Result: 41.6 µM

More entries:
Value sought: TGI, system RXF 393 renal, item O=[N+]([O-])c1cc(C2SCc3nc4ccccc4n32)ccc1Cl (centres undefined) . Result: 79 µM

Value sought: TGI, system RXF 393 renal, item "Clc1ccc2nnnn2n1" . Result: 8.65 µM

Value sought: TGI, system RXF 393 renal, item CC(C)c1c(O)ccc2c1CCC1C(C)(C)CCCC21C (centres undefined) . Result: 29.3 µM

Value sought: TGI, system RXF 393 renal, item CCN1C(=O)N(c2ccccc2)C2NC(=S)N(/N=C/C=C/c3ccccc3)C21 (centres undefined) . Result: > 100 µM

Value sought: TGI, system RXF 393 renal, item "C=C1C(=O)O[C@H]2[C@H](OC(C)=O)[C@@H](C)CCC/C(C)=C/CC[C@@]3(C)O[C@@H]3C[C@@H]12" . Result: 5.08 µM

Value sought: TGI, system RXF 393 renal, item CC(C)(C)OC(=O)N1CCC2(C)CC(=O)CC=C12 (centres undefined) . Result: > 100 µM

Value sought: TGI, system RXF 393 renal, item "CNCCNc1c2c(c(NCCNC)c3[nH]ccc13)C(=O)c1ccccc1C2=O" . Result: 0.752 µM

Value sought: TGI, system RXF 393 renal, item "Cc1cc(NCc2cc(Nc3ccnc4cc(Cl)ccc34)ccc2F)nc(N2CCN(C)CC2)n1" . Result: 2.94 µM

Value sought: TGI, system RXF 393 renal, item "Oc1[nH]c2c(Br)cccc2c1C1=Nc2ccccc2/C1=N/OCCN1CCCC1" . Result: 9.66 µM

----------
Each entry below carries its reported TGI.
- System: SK-MEL-2 melanoma
- assay remarks: NCI tumour cell line growth inhibition, 48 h
Where a SMILES comes first, the peptide text is derived from it. The star is where a group is joined. Ethyl(2-NMe3+) = C[N+](C)(C)CC*; Boc = CC(C)(C)OC(=O)*
Please reply with the bare figure in µM and do not write the unit itself.

Sample records with TGI:
Value sought: TGI, system SK-MEL-2 melanoma, item "O=c1nc(NC(c2ccccc2)(c2ccccc2)c2ccccc2)ccn1CCNCCn1ccc(NC(c2ccccc2)(c2ccccc2)c2ccccc2)nc1=O" . Result: 9.32

Value sought: TGI, system SK-MEL-2 melanoma, item "COc1cc2c(cc1OCCCCCOc1ccc(-n3c(C)nc4ccccc4c3=O)cc1)N=C[C@@H]1CCCN1C2=O" . Result: 1.25

Value sought: TGI, system SK-MEL-2 melanoma, item "CN(C)CCCN1c2ccccc2C(C)(C)c2ccccc21" . Result: 30.1

Value sought: TGI, system SK-MEL-2 melanoma, item CC(NC(=O)C(Cc1ccc(OCC[N+](C)(C)C)cc1)NC(=O)OC(C)(C)C)C(=O)NC(Cc1ccccc1)C(=O)NCC(N)=O (configuration not stated) (Boc-Y(Ethyl(2-NMe3+))AFG-NH2; configuration not given here) . Result: 25.2

As a next step, examine the molecule that follows.
Value sought: TGI, system SK-MEL-2 melanoma, item COC(=O)c1cc2cc3c(c(O)c2c(=O)o1)O[C@@]1(Oc2c(O)c4c(c(O)c2[C@H]1OC1CC(OC)C(O)C(C)O1)C(=O)C=C(OC)C4=O)[C@H](O)C3 (some centres not stated) . Result: 10.5

FYI, the data here is from PubChem BioAssay (NCI).
